Protocol Summary: Aqueous kinetic solubility of the compound at pH 6.5
Type: physicochemical
Experimental Parameters: read-out: Kinetic_solubility
Quantity Measured: solubility kinetic (µM)

> print(dat)
                               query.smiles   quantity.measured  value.units  data.value
1  O=C(O)c1ccc(NC(=O)[C@H](CC2CCCCC2)n2cnc(S(=O)(=O)C3CCC3)c2)nc1  solubility kinetic           µM         198
2  O=C(O)c1ccc(NC(=O)[C@H](CC2CCCC2)n2cnc(S(=O)(=O)C3CCC3)c2)nc1  solubility kinetic           µM         428

----------
Protocol Summary: Cmax in dog at 5 mg/kg, po
Format: ADME, organism-based, Canis lupus familiaris
Design: dose 5 mg/kg, route oral
Experimental Parameters: in vivo
Quantity Measured: Cmax (ng/mL)

> print(dat)
                               query.smiles  quantity.measured  data.value
1  O=C(O)c1ccc(NC(=O)[C@H](CC2CCCC2)n2cnc(S(=O)(=O)C3CCC3)c2)nc1               Cmax        12.8

----------
Protocol Summary: Intrinsic clearance in human liver microsomes
Assay type: ADME
Experimental Parameters: read-out: CLH
Quantity Measured: CLint scaled

> print(dat)
                               query.smiles     data.value
1  O=C(O)c1ccc(NC(=O)[C@H](CC2CCCC2)n2cnc(S(=O)(=O)C3CCC3)c2)nc1  < 8 mL/min/kg

----------
Protocol Summary: Clearance in dog at 1 mg/kg, iv
Assay type: ADME, organism-based, Canis lupus familiaris
Set-up: dose 1 mg/kg, route intravenous
Experimental Parameters: in vivo
Quantity Measured: clearance (mL/min/kg)

> print(dat)
                               query.smiles  data.value
1  O=C(O)c1ccc(NC(=O)[C@H](CC2CCCC2)n2cnc(S(=O)(=O)C3CCC3)c2)nc1          18

----------
Protocol Summary: Half life in rat at 1 mg/kg, iv
Type: ADME, organism-based
Parameters: dose 1 mg/kg, route intravenous
Experimental Parameters: in vivo
Quantity Measured: half-life (min)

> print(dat)
                               query.smiles  data.value
1  O=C(O)c1ccc(NC(=O)[C@H](CC2CCCC2)n2cnc(S(=O)(=O)C3CCC3)c2)nc1          12

----------
Protocol Summary: AUC (0 to 24 hrs) in dog at 5 mg/kg, po
Assay type: ADME, organism-based, Canis lupus familiaris
Set-up: time < 24 hr, dose 5 mg/kg, route oral
Experimental Parameters: plasma
Quantity Measured: AUC(0-t) at 24 h (ng·h/mL)

> print(dat)
                               query.smiles  quantity.measured  data.value
1  O=C(O)c1ccc(NC(=O)[C@H](CC2CCCC2)n2cnc(S(=O)(=O)C3CCC3)c2)nc1   AUC(0-t) at 24 h        36.6
